- target-or-test-system: VEGFR2 (Homo sapiens, UniProt P35968)
- Construct: purchased Upstate
- Sequence (P35968 20-1356): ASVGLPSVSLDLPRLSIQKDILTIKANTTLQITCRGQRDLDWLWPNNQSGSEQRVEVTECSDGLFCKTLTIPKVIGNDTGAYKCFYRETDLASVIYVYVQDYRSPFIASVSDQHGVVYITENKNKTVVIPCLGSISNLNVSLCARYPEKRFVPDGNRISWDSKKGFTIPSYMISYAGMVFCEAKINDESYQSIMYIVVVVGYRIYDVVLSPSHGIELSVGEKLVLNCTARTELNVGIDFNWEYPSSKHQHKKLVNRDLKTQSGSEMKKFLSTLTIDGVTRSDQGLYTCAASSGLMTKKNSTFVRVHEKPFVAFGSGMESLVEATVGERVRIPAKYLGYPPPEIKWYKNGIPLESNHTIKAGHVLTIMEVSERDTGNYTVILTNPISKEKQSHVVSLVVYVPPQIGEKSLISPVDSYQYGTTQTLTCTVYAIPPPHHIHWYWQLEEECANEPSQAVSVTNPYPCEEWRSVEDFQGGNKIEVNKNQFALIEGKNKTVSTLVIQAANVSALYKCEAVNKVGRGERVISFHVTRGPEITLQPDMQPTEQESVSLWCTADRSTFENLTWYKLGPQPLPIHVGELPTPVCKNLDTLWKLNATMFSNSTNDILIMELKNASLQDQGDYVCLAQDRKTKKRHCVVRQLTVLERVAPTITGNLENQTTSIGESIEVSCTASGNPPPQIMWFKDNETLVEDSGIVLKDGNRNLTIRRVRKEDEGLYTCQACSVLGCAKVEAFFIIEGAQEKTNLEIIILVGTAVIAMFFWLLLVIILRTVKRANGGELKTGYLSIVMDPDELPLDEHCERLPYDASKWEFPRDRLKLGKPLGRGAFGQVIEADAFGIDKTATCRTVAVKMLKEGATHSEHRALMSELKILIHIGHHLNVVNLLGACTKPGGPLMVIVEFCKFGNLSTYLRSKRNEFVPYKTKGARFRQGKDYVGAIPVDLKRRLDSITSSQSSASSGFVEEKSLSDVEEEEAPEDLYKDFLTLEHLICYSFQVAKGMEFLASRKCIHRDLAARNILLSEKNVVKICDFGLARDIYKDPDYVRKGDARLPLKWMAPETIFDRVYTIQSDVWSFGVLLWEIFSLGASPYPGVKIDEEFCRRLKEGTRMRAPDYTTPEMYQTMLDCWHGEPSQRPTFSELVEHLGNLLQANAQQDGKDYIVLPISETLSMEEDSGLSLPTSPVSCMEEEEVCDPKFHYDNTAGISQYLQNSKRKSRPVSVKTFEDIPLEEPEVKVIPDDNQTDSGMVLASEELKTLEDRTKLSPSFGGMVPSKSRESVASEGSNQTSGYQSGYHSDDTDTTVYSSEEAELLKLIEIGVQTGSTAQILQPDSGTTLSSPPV
- experimental-details: VEGFR2 in vitro kinase inhibitory activity assay (TRF)
- Type: biochemical
- study-conditions: 0.5 μM ATP, 1 hour; read-out: VEGFR2 IC50(μM) or % I
value-kind: IC50 (µM)

Take a look at these entries with their results.
{"molecule": "CN(CCON=Cc1ccn2c(-c3cccc(NC(=O)NCC(F)(F)F)c3)cnc2c1)CCS(C)(=O)=O [Compound 1-42]", "target-or-test-system": "VEGFR2 (Homo sapiens, UniProt P35968)", "value-kind": "IC50", "unit-abbrev": "µM", "observed": 0.54}
{"molecule": "CS(=O)(=O)CCNCCON=Cc1ccn2c(-c3cccc(NC(=O)NCC(F)(F)F)c3)cnc2c1 [Compound 1-52]", "target-or-test-system": "VEGFR2 (Homo sapiens, UniProt P35968)", "value-kind": "IC50", "unit-abbrev": "µM", "observed": 0.73}
{"molecule": "O=C(NCC(F)(F)F)Nc1cccc(-c2cnc3cc(C=NOCC(O)CN4CCC(O)CC4)ccn23)c1 (centres unmarked) [Compound 1-43]", "target-or-test-system": "VEGFR2 (Homo sapiens, UniProt P35968)", "value-kind": "IC50", "unit-abbrev": "µM", "observed": 0.52}

P = COCCN1CCC(CCON=Cc2ccn3c(-c4cccc(NC(=O)NCC(F)(F)F)c4)cnc3c2)CC1 [Compound 1-48]
Q = Cc1cc(CON=Cc2ccn3c(-c4cccc(NC(=O)NCC(F)(F)F)c4)cnc3c2)no1 [Compound 1-17]
R = C/C(=N\OCCCN1CCOCC1)c1ccn2c(-c3cccc(NC(=O)NCC(F)(F)F)c3)cnc2c1 [Compound 1-44]
Hey, quick one: sort these by IC50, low to high? Sort the labels as requested; that list is your answer. R, P, Q

I = O=C(NCC(F)(F)F)Nc1cccc(-c2cnc3cc(C=NOCCC4CCN(CCO)CC4)ccn23)c1 [Compound 1-49]
II = Cc1noc(C)c1CON=Cc1ccn2c(-c3cccc(NC(=O)NCC(F)(F)F)c3)cnc2c1 [Compound 1-12]
Look at I and II . Which one has the lower recorded IC50 number? Refer to your chosen item by its label in the answer. I

---

- target-or-test-system: Ba/F3-TEL-FGFR3 cells (Homo sapiens, UniProt P22607)
- Construct: fused on or other part: P41212 (Transcription factor ETV6)
- Sequence (P22607 whole entry, change not shown, the tested form may be a part): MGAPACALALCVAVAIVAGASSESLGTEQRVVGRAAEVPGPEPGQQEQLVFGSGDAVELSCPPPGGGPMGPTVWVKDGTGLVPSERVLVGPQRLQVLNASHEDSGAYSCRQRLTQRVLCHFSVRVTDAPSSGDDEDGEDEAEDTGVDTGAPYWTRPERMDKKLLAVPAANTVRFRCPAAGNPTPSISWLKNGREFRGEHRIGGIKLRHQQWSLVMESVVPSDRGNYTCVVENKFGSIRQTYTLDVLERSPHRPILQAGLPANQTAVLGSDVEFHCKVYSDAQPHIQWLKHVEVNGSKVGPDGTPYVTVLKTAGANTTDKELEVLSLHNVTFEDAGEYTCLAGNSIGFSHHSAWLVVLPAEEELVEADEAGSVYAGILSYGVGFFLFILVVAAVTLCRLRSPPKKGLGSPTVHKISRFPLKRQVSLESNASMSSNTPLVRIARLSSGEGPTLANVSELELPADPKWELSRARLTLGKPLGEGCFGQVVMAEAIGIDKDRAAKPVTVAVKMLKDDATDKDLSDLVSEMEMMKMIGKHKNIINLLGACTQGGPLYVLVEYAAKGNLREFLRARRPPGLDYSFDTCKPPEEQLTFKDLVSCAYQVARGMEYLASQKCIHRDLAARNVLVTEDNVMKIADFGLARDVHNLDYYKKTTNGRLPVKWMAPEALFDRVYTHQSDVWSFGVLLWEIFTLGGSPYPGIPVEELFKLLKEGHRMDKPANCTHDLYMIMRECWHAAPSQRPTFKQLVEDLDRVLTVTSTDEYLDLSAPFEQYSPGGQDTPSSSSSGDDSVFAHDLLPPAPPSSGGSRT
- experimental-details: Ba/F3-TEL-FGFR3 cell proliferation assay (Alamar Blue)
- Assay type: cell-based
- study-conditions: 72 hours; read-out: BaF3-TEL-FGFR3 prolif
- Description: Ba/F3-TEL-FGFR3 & Ba/F3 (WT) Cell Proliferation Assays Stably transfected Ba/F3-TEL-FGFR3 cells were plated out into black 96-well tissue culture plates with clear bottoms in RPMI medium containing 10% FBS and 0.25 mg/ml G418 at a density of 5×10^3 cells/well (200 μl per well). […] Plates were placed in the incubator for 4-6 hours before reading plates at 535 nm (excitation)/590 nm (emission) on a Fusion plate reader (Packard). Where inhibition is high an IC50 can be determined.
value-kind: GI50 (nM)

{"compound": "O=C(NCC(F)(F)F)Nc1cccc(-c2cnc3cc(/C(=N\\OCCO)C4CC4)ccn23)c1 [Compound 1-33]", "GI50 / nM": 250}
{"compound": "O=C(NCC(F)(F)F)Nc1cccc(-c2cnc3cc(C=NOCc4cccnc4)ccn23)c1 [Compound 1-55]", "GI50 / nM": 140}
{"compound": "COCCOCCON=Cc1ccn2c(-c3cccc(NC(=O)NCC(F)(F)F)c3)cnc2c1 [Compound 1-2]", "GI50 / nM": 290}

I = O=C(NCC(F)(F)F)Nc1cccc(-c2cnc3cc(C=NOCC(O)CN4CCC(O)CC4)ccn23)c1 (centres unmarked) [Compound 1-43]
II = COC1CCN(CCCON=Cc2ccn3c(-c4cccc(NC(=O)NCC(F)(F)F)c4)cnc3c2)CC1 [Compound 1-36]
III = O=C(NCC(F)(F)F)Nc1cccc(-c2cnc3cc(/C=N/OCCCO)ccn23)c1 [Compound 1-18]
IV = O=C(NCC(F)(F)F)Nc1cccc(-c2cnc3cc(C=NOCC4CC4)ccn23)c1 [Compound 1-11]
V = C/C(=N\O)c1ccn2c(-c3cccc(NC(=O)NCC(F)(F)F)c3)cnc2c1 [Compound 1-21]
Rank descending by GI50. List labels; respect the requested ordering. I, IV, II, III, V
(I: 6600 nM, IV: 600 nM, II: 380 nM, III: 240 nM, V: 46 nM)
